- test details: viability gain of MRP-1-high H69AR cells under doxorubicin, pilot screen, MRP-1 activator project, CellTiter-Glo, duplicate (AID 807);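 also: compound pretreatment 18-22 h then 72 h combined with doxorubicin; 0% = doxorubicin alone and 100% = vehicle without doxorubicin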
- condition info: H69AR viability with doxorubicin, CellTiter-Glo luminescence; at 10 µM; hits give high values
Measured viability increase, listed per entry.
Give the value in % but do not write % after it.

{"compound": "O=C(O)CCC(=O)NCc1ccc2[nH]c3c(c2c1)CCCC3", "viability increase [%]": 0.95}

**Query** Query (compound): CCCCCn1c(SCc2cccc(C)c2)nc2c1c(=O)[nH]c(=O)n2C ; field requested: viability increase
**Result** -7.54

**Query** Record request: viability increase value, item O=C(NCc1ccccn1)C1CCN(S(=O)(=O)N2CCCC2)CC1
**Result** -0.46

**Query** Field request: viability increase | item: C=CCn1c(=N)n(CC(O)COc2ccccc2OC)c2ccccc21 (stereo unspecified)
**Result** -4.19

**Query** Any idea what its viability increase is? The compound is COc1ccc2c(c1)c(CCN1C(=O)c3ccccc3C1=O)cn2C(=O)c1ccco1
**Result** -4.3

**Query** Any idea what its viability increase is? The compound is Cc1ccc(-c2nc(CS(=O)(=O)CC(=O)N3CCc4ccccc4C3)c(C)o2)cc1
**Result** -2.25

**Query** Bench note: what viability increase did CCOC(=O)C1CCN(C(=O)CN(c2ccc(OC)cc2)S(=O)(=O)c2c(C)nn(C)c2C)CC1 show?
**Result** -0.02

**Query** Need viability increase, item CCOc1cccc(C2c3c(oc4cc(C)c(C)cc4c3=O)C(=O)N2CCCN(C)C)c1 (stereo unspecified)
**Result** -3.58

**Query** // returns reported viability increase for input Cn1cccc1Cc1nnc(SCC(=O)NCc2ccccc2Cl)n1-c1ccc(F)cc1
**Result** -5

---

- test details: growth suppression of beta-catenin knockout HCT116, pilot screen, human colon tumor cells (AID 823);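 also: 0% = wells killed by 20 µM Hyamine and 100% = untreated DMSO cell wells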
- condition info: CellTiter-Glo, 60 h, at 10 µM, hits give low values
Records with an inconclusive call do not appear.
measured attribute: viability (%)
# number only, unit % dropped from output

{"compound": "Cn1c(C(=O)NCCN2CCCCCC2)cc2c(=O)n(C)c3ccccc3c21", "unit symbol": "%", "viability": 65.7}
{"compound": "CC(Oc1ccc(Cl)cc1Cl)C(=O)NCCCN1CCOCC1 (stereo not drawn)", "unit symbol": "%", "viability": 96}
{"compound": "CCn1c(C(=O)N2CCc3ccccc3C2)cc2sccc21", "unit symbol": "%", "viability": 84.1}
{"compound": "CCOC(=O)C1=C2N(C)c3ccccc3N2CCC1=O", "unit symbol": "%", "viability": 97.5}

// below: viability requested for another compound
**Query** // returns reported viability for input Cc1c(NC(=O)c2ccc(F)cc2)c(=O)n(-c2ccccc2)n1C
**Result** 106

---

Listing of entries alongside the reported viability.
- test details: growth suppression of beta-catenin knockout HCT116, pilot screen, human colon tumor cells (AID 823);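 also: 0% = wells killed by 20 µM Hyamine and 100% = untreated DMSO cell wells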
- condition info: CellTiter-Glo, 60 h, at 10 µM, hits give low values
Results filed as inconclusive are left out.
Numeric answer only, unit % assumed.

{"compound": "CCn1c(C2CC(=O)N(c3cc(C)cc(C)c3)C2)nc2ccccc21 (stereo unspecified)", "viability, %": 87}

**Query** What value of viability has been recorded for this entry: CCC(C)NC(=O)C(Cc1ccccc1)n1cccc1 (stereo unspecified)
**Result** 101

**Query** Item under review: COc1ccc(Br)cc1S(=O)(=O)N(CC(=O)N1CCOCC1)c1ccccc1 . Reported viability?
**Result** 98.1

**Query** What does the data say about its viability? Entry: CCOC(=O)C1C(=O)CC(C)(O)C(C(=O)OCC)C1c1cccs1 (stereo unspecified)
**Result** 90

**Query** Field request: viability | item: O=C(CN1CCN(C(=O)c2ccco2)CC1)Nc1ccccc1-c1ccccc1
**Result** 91

**Query** Query: viability; subject: Cn1c(=O)c2c(nc(SCCN3CCOCC3)n2Cc2ccc(Cl)cc2)n(C)c1=O
**Result** 87.8

**Query** GET /values?readout=viability&item= O=C(O)CC1C(=O)NCCN1Cc1ccc(F)c(F)c1 (stereo unspecified)
**Result** 99.4

**Query** Given the entry O=C(CCc1ccccc1)Nc1ccc(NC(=O)c2ccco2)cc1 , report its measured viability.
**Result** 103

---

- test details: Restrictive medium S. cerevisiae growth inhibition, OD615, pilot screen of yeast lifespan reduction project, restrictive growth control (AID 706);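 also: modified DeaD lifespan yeast strain shifted to restrictive glucose medium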
- condition info: OD615, 48 h, at 10 µM
The source made the active and inactive calls.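 Rule for the calls: active = growth inhibition above a set limit, 3 SD over mean compound inhibition, in both replicates (cut at about 43% in these data); inconclusive = above the limit in only one replicate; inactive = at or below the limit in both replicates.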
// classify into active, inactive

Recorded results for 5 compounds are shown here.
{"compound": "CN(CC(=O)NCCC1=CCCCC1)S(=O)(=O)c1ccc2c(c1)c(=O)n(C)c(=O)n2C", "assigned category": "inactive"}
{"compound": "CSC1=NCCN1C(=O)COc1ccccc1", "assigned category": "inactive"}
{"compound": "O=C1CSC(c2nn(-c3ccccc3)cc2-c2cc3ccccc3oc2=O)N1Cc1ccco1 (centres undefined)", "assigned category": "inactive"}
{"compound": "COc1ccc(-n2cnnc2)cc1", "assigned category": "inactive"}
{"compound": "COc1cccc(CNC(=O)Cn2cc3c(n2)CCCC3)c1", "assigned category": "inactive"}

**Query** Which result was noted for this compound in the test: Cc1cccc(CCNC(=O)CN(C)S(=O)(=O)c2ccc3c(c2)c(=O)n(C)c(=O)n3C)c1
**Result** inactive

**Query** Per the assay record, what outcome was assigned to O=C(NCc1ccccc1)c1ccc2c(c1)OCCO2 ?
**Result** inactive

**Query** Which outcome was assigned to Cc1nc2cc(-c3cccc(F)c3)nn2c(C)c1CCC(=O)N1CCN(c2ccccn2)CC1 in this test?
**Result** inactive

**Query** Outcome? O=C(NC(O)C(=O)c1ccccc1)c1cccs1 (centres undefined)
**Result** inactive

**Query** Please indicate how the test categorized Cc1cc(C)nc(NS(=O)(=O)c2ccc(NC(=O)c3ccco3)cc2)n1 .
**Result** inactive

**Query** How was O=C(O)CCCC(=O)Nc1ccccc1Br classified in this test?
**Result** inactive

**Query** Record request — test call for CCOc1ccc(N2CCCCn3c2nc2c3c(=O)[nH]c(=O)n2C)cc1
**Result** inactive

**Query** Returns: the outcome recorded for CCc1c(C(C)O)oc2ccc3c(C)cc(=O)oc3c12 (centres undefined) in this assay.
**Result** inactive

**Query** Could you kindly confirm the outcome this assay logged for O=C(CSc1ccccc1)NCc1cccnc1 ?
**Result** inactive

**Query** Can you look up the reported call for O=C(CN1CCN(C2CCCCC2)CC1)c1ccc2cc[nH]c2c1 for me?
**Result** inactive

**Query** Could you check what this test reported for C=CCn1c(O)c(C2=c3ccccc3=NC2=O)sc1=Nc1ccc(O)cc1 ?
**Result** inactive

---

Recorded RAM network inhibition values for a group of molecules are listed next.
- test details: RAM signaling pathway blockade in yeast – S. cerevisiae, Pdr1DBD-CYC8 efflux-inhibited sensitized strain, primary screen (AID 1298);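 also: 0% = DMSO untreated cells without growth and 100% = 10 µM 1-NA-PP1 full growth; higher means more yeast growth rescued from 5-FOA killing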
- condition info: S. cerevisiae cbk1-as DSE1-URA3 strain, 5-FOA growth OD615, 2 d; at 50 µM; hits give high values
The source made the active and inactive calls.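 How the source made its calls: active means RAM network inhibition above 8.4% in each of two replicates, 3 SD over the compound average; inconclusive means above 8.4% inhibition in only one replicate; inactive means 8.4% inhibition or less in each replicate.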

Take a look at these entries with their results.
{"molecule": "C=C1c2cc(CC)ccc2NC(=O)N1c1ccc(C)cc1", "result value": "0.61% (inactive)"}
{"molecule": "Cc1ccc(OCC(=O)n2nc(C)cc2C)c(Br)c1", "result value": "0.1% (inactive)"}
{"molecule": "Cc1cc(C)nc(SCC(=O)c2ccc(O)cc2O)n1", "result value": "-1.2% (inactive)"}

**Query** Which value of RAM network inhibition has been reported for Nc1ccccc1SCc1cn2cccnc2n1 in the records?
**Result** 3.55% (inactive)

**Query** Would you kindly share the measured RAM network inhibition for CC(=O)Nc1ccc(OCC=C(Cl)Cl)cc1 ?
**Result** 1.16% (inactive)

**Query** Requested field: RAM network inhibition. Item: COc1ccc(C2NC(=O)NC(C)=C2C(=O)Nc2cccc(C)c2C)cc1 (configuration not stated)
**Result** 1.64% (inactive)

**Query** Look up RAM network inhibition for this molecule: Cc1cc(C)n(C(=O)c2ccc(NC(=O)C3CC3)cc2)n1
**Result** 5.67% (inactive)

**Query** Please look up its RAM network inhibition: NS(=O)(=O)c1ccc(S(=O)(=O)NCCc2ccccc2)cc1
**Result** 3.88% (inactive)

**Query** Quick check: RAM network inhibition of Cc1ccc2nc(NC(=O)C3CCN(S(=O)(=O)c4ccc5c(c4)oc(=O)n5C)CC3)sc2c1 ?
**Result** 9.3% (inactive)

**Query** Find the recorded RAM network inhibition belonging to Cc1cc(Cl)ccc1N=Cc1c(O)n(C)c(=O)n(C)c1=O and report it.
**Result** -1.25% (inactive)

**Query** I have this molecule here, O=C(Oc1ccccc1)N1CCN(c2ccc(F)cc2)CC1 , and I need its recorded RAM network inhibition.
**Result** 5.1% (inactive)

**Query** Tell me the measured RAM network inhibition of CS(=O)(=O)NCCCc1ccccc1 , please.
**Result** -0.88% (inactive)

Values from PubChem BioAssay
